- Experiment Notes: HepaRG cytotoxicity, MTT assay EC50
- Assay type: cell-based, human
- Assay Conditions: human, NoSpin HepaRG cells
Property Measured: EC50 at 48 h (µg/mL)
One number for each entry, in µg/mL.

Bench note: what EC50 at 48 h did Nc1ccccc1Sc1c[nH]c2ccc(Br)cc12 [Compound 174M, 2-((5-bromo-1H-indol-3-yl)thio)aniline] show?
85

----------
- System: Bacillus subtilis
- Experiment Notes: Bacillus subtilis MIC / MBC
- Format: cell-based
- Assay Conditions: Bacillus subtilis, strain B-1985; read-out: Bacillus subtilis MIC
Can you tell me MIC for the items I'm about to list?
Give bare numbers, in µg/mL.

Below, each entry is followed by its recorded MIC result.
Brc1ccc(Sc2c[nH]c3ccc(Br)cc23)cc1 [Compound 172D] :: 1.25
Oc1ccccc1Sc1c[nH]c2ccc(Br)cc12 [Compound 174AI, 2-((5-bromo-1H-indol-3-yl)thio)phenol] :: 0.78
Brc1ccc(Sc2c[nH]c3cc(Br)c(Br)cc23)cc1 [Compound 174AB] :: 4
Brc1cccc(Sc2c[nH]c3ccc(Br)cc23)c1 [Compound 174N] :: 1.25

In the following, a different compound is considered.
Returns the measured MIC for the input compound. Input: Nc1ccccc1Sc1c[nH]c2ccc(Br)cc12 [Compound 174M, 2-((5-bromo-1H-indol-3-yl)thio)aniline]
5

----------
- Tested on: Burkholderia thailandensis Brett et al ATCC: 700388
- Experiment Notes: microbe, parasite or virus in culture
- Format: cell-based
Please go through the items and note down their MIC.

// known answers, use as guide
Brc1ccc2[nH]cc(Sc3c[nH]c4ccccc34)c2c1 [Compound 174AL] :: > 50 µg/mL
Cc1[nH]c2ccccc2c1Sc1ccc(Br)cc1 [Compound 172C] :: > 50 µg/mL
CCc1ccccc1Sc1c[nH]c2ccc(C(F)(F)F)cc12 [Compound 177G] :: > 50 µg/mL
Oc1ccc(Sc2c[nH]c3ccc(C(F)(F)F)cc23)cc1 [Compound 177B] :: 25 µg/mL

Param item = COc1ccc2[nH]cc(Sc3ccc(Br)cc3)c2c1 [Compound 172E] ; retrieve measured MIC.
> 50 µg/mL

----------
Could you please report measured MFC for the items listed next?
- Test system: C. albicans
- Experiment Notes: Candida albicans MIC / MFC
- Type: cell-based
- Assay Conditions: C. albicans strain #762, read-out: MFC
One number for each entry, in µg/mL.

# batch: return MFC for each of the 3 compounds below
1. FC(F)(F)c1ccc2[nH]cc(Sc3ccccc3Br)c2c1 [Compound 174AX]
2. Nc1ccccc1Sc1c[nH]c2ccc(Br)cc12 [Compound 174M, 2-((5-bromo-1H-indol-3-yl)thio)aniline]
3. Brc1ccc(Sc2c[nH]c3cccc(Br)c23)cc1 [Compound 174D]

12.5
25
12.5

Kindly give each listed record's MFC.
1. Brc1cccc(Sc2c[nH]c3ccc(Br)cc23)c1 [Compound 174N]
2. Brc1ccc(Sc2c[nH]c3cc(Br)cc(Br)c23)cc1 [Compound 174AE]

1: 6.25; 2: 25

----------
For each record, write down the corresponding MIC.
- Tested on: Burkholderia thailandensis Brett et al ATCC: 700388
- Experiment Notes: microbe, parasite or virus in culture
- Format: cell-based

Brc1ccc(Sc2c[nH]c3ccc(Br)cc23)cc1 [Compound 172D] :: 100 µg/mL
Brc1ccc(Sc2c[nH]c3c(Br)cc(Br)cc23)cc1 [Compound 174AC] :: > 50 µg/mL
Oc1ccccc1Sc1c[nH]c2ccc(C(F)(F)F)cc12 [Compound 177A] :: > 50 µg/mL
Nc1ccc(Sc2c[nH]c3ccc(Br)cc23)cc1 [Compound 174Z, 4-((5-bromo-1H-indol-3-yl)thio)aniline] :: > 50 µg/mL

Attention now shifts to the item below.
What does the data say about its MIC? Entry: Brc1ccc2[nH]cc(Sc3cc(Br)c(Br)c(Br)c3)c2c1 [Compound 174AH]
> 50 µg/mL

----------
- Tested on: Bacillus subtilis
- Experiment Notes: Bacillus subtilis MIC / MBC
- Assay type: cell-based
- Assay Conditions: Bacillus subtilis, strain B-41581; read-out: Bacillus subtilis MIC
Property Measured: MIC (µg/mL)
Answers are plain numbers, in µg/mL.

Brc1ccc(Sc2c[nH]c3ccc(Br)cc23)cc1 [Compound 172D] :: 1.25

Quick batch: MIC for everything below.
1. Oc1ccccc1Sc1c[nH]c2ccc(Br)cc12 [Compound 174AI, 2-((5-bromo-1H-indol-3-yl)thio)phenol]
2. Brc1ccc(Sc2c[nH]c3cc(Br)c(Br)cc23)cc1 [Compound 174AB]
3. Nc1ccccc1Sc1c[nH]c2ccc(Br)cc12 [Compound 174M, 2-((5-bromo-1H-indol-3-yl)thio)aniline]

1: 6.25; 2: 2; 3: 5

----------
- System: Francisella tularensis strains
- Experiment Notes: microbe, parasite or virus in culture
- Format: cell-based
- Assay Conditions: read-out: F. tularensis BSL-3 MIC, strain HN-63
Consider the following molecules; for each one, report its MIC.
Units required after the number.

Nc1cc(Br)ccc1Sc1c[nH]c2ccc(Br)cc12 [Compound 174X] :: 4 µg/mL

For every item below, please supply its MIC.
1. COc1ccc2[nH]cc(Sc3ccc(Br)cc3)c2c1 [Compound 172E]
2. Brc1cccc(Sc2c[nH]c3ccc(Br)cc23)c1 [Compound 174N]
3. Nc1ccccc1Sc1c[nH]c2ccc(Br)cc12 [Compound 174M, 2-((5-bromo-1H-indol-3-yl)thio)aniline]
4. Cc1[nH]c2ccc(Br)cc2c1Sc1ccccc1Br [Compound 174AZ]
5. Cc1ccccc1Sc1c[nH]c2ccc(Br)cc12 [Compound 174AY, 5-bromo-3-(o-tolylthio)-1H-indole]
6. FC(F)(F)c1ccccc1Sc1c[nH]c2ccc(Br)cc12 [Compound 174AV]
7. Oc1ccccc1Sc1c[nH]c2ccc(Br)cc12 [Compound 174AI, 2-((5-bromo-1H-indol-3-yl)thio)phenol]

1: 8 µg/mL; 2: 4 µg/mL; 3: 4 µg/mL; 4: 2 µg/mL; 5: 2 µg/mL; 6: 4 µg/mL; 7: 2 µg/mL

I'd like to know its MIC. The molecule in question is Fc1ccccc1Sc1c[nH]c2ccc(Br)cc12 [Compound 174AU]
2 µg/mL

----------
- Test system: Bacillus subtilis
- Experiment Notes: Bacillus subtilis MIC / MBC
- Type: cell-based
- Assay Conditions: Bacillus subtilis, strain B-41090; read-out: Bacillus subtilis MIC
Property Measured: MIC
Returns: string containing the number followed by the unit.

Some molecules with known MIC results, for comparison:
Brc1ccc(Sc2c[nH]c3cc(Br)c(Br)cc23)cc1 [Compound 174AB] :: 4 µg/mL
Oc1ccccc1Sc1c[nH]c2ccc(Br)cc12 [Compound 174AI, 2-((5-bromo-1H-indol-3-yl)thio)phenol] :: 6.25 µg/mL
Nc1ccccc1Sc1c[nH]c2ccc(Br)cc12 [Compound 174M, 2-((5-bromo-1H-indol-3-yl)thio)aniline] :: 5 µg/mL
Brc1ccc(Sc2c[nH]c3ccc(Br)cc23)cc1 [Compound 172D] :: 2.5 µg/mL

--- query ---
What is its MIC for Bacillus subtilis? Entry: Brc1cccc(Sc2c[nH]c3ccc(Br)cc23)c1 [Compound 174N]
2.5 µg/mL

----------
For each record, write down the corresponding MIC.
- Tested on: N. gonorrhoeae
- Experiment Notes: N. gonorrhoeae MIC
- Format: cell-based
- Assay Conditions: Neisseria gonorrhoeae, strain #167
Give bare numbers, in µg/mL.

Consider the following illustrative entries.
Brc1cccc(Sc2c[nH]c3ccc(Br)cc23)c1 [Compound 174N] :: 1.56
FC(F)(F)c1ccccc1Sc1c[nH]c2ccc(Br)cc12 [Compound 174AV] :: 3.12
Cc1[nH]c2ccc(Br)cc2c1Sc1ccccc1Br [Compound 174AZ] :: 3.12

Continue with the next molecule.
Missing value: MIC, N. gonorrhoeae, entry Nc1ccccc1Sc1c[nH]c2ccc(Br)cc12 [Compound 174M, 2-((5-bromo-1H-indol-3-yl)thio)aniline] . Fill in?
1.56

----------
Provide the recorded MIC for the entries that follow.
- System: N. gonorrhoeae
- Experiment Notes: N. gonorrhoeae MIC
- Format: cell-based
- Assay Conditions: Neisseria gonorrhoeae, strain #203

COc1ccc2[nH]cc(Sc3ccc(Br)cc3)c2c1 [Compound 172E] :: 3.13 µg/mL
Fc1ccc2[nH]cc(Sc3ccc(Br)cc3)c2c1 [Compound 174E] :: 1.56 µg/mL
Nc1ccccc1Sc1c[nH]c2ccc(C(F)(F)F)cc12 [Compound 177C] :: 3.13 µg/mL

Would you kindly look at the next entry?
Requested field: MIC. Item: Oc1ccccc1Sc1c[nH]c2ccc(C(F)(F)F)cc12 [Compound 177A]
3.13 µg/mL

----------
Would you kindly list MIC for each of these molecules?
- Test system: N. gonorrhoeae
- Experiment Notes: N. gonorrhoeae MIC
- Assay type: cell-based
- Assay Conditions: Neisseria gonorrhoeae, strain #167

Oc1ccccc1Sc1c[nH]c2ccc(Br)cc12 [Compound 174AI, 2-((5-bromo-1H-indol-3-yl)thio)phenol] :: < 0.39 µg/mL

Parameter requested: MIC. Apply to each item below.
1. COc1ccc2[nH]cc(Sc3ccc(Br)cc3)c2c1 [Compound 172E]
2. Fc1ccc2[nH]cc(Sc3ccc(Br)cc3)c2c1 [Compound 174E]

< 0.39 µg/mL
< 0.39 µg/mL
